Molecular target: T1, full-length human GIPR with an N-terminal FLAG tag (human, UniProt P48546 22-466)
T1 sequence (looked up): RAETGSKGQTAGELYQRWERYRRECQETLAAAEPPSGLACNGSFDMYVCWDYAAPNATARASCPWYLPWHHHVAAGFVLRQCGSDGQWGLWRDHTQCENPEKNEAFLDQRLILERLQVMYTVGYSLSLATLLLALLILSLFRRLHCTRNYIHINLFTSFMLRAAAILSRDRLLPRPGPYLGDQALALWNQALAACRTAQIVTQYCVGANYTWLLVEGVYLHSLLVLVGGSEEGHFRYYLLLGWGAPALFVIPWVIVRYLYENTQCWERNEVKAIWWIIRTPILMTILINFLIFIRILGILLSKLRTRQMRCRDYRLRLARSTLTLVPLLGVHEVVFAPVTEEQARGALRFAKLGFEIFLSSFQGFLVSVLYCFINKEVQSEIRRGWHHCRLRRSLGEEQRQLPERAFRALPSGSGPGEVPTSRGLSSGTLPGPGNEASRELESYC
Test: cell-based or functional assay
Starred links: 1 amine or outer side, 2 acyl side, 3 side chain; linkers in the order of their positions; H or OH if unused. Non-standard residues stand in square brackets, D forms with d. Groups on a side chain read outwards from the residue. No end group written: not given here. *: point of attachment. C18 diacid = O=C(O)CCCCCCCCCCCCCCCCC(=O)*; C17 diacid = O=C(O)CCCCCCCCCCCCCCCC(=O)*; γGlu = O=C(O)[C@H](CCC(=O)[*:2])N[*:1]; NMeY = CN[C@@H](Cc1ccc(O)cc1)C(=O)O; AEEA = NCCOCCOCC(=O)O; Aib = CC(C)(N)C(=O)O

[
  {
    "binder": "YXEGTFISDYSIAXDRXAQXNFVNWLLAQSPSSGAPPPS (N-methyl Tyr 1; Aib at 2,17,20; Lys(G5-C20 diacid) at 14; C-terminal OH) [Compound No. 112]",
    "Human GIPR cAMP EC50, HEK293T [pM]": 0.3
  },
  {
    "binder": "[NMeY][Aib]EGTFISDYSI[Aib]LDR[Aib]AA[Aib]K([AEEA-AEEA-γGlu-γGlu-C18 diacid])FVNWLLAQRPSSGAPPPS-NH2 [Compound No. 106]",
    "Human GIPR cAMP EC50, HEK293T [pM]": 0.4
  },
  {
    "binder": "[NMeY][Aib]EGTFISDYSIALDRIHQQNFVNWLLAQK-NH2 (not fully specified (residue 30)) [Compound No. 5]",
    "Human GIPR cAMP EC50, HEK293T [pM]": 0.7
  },
  {
    "binder": "YXEGTFISDYSIXLDSXAQXDFVNWLLAQRG (N-methyl Tyr 1; Aib at 2,13,20; Lys(G6-C18 diacid) at 17; C-terminal OH) [Compound No. 64]",
    "Human GIPR cAMP EC50, HEK293T [pM]": 0.2
  },
  {
    "binder": "[NMeY][Aib]EGTFISDYSIALDR[Aib]AQ[Aib]K([AEEA-AEEA-γGlu-γGlu-C18 diacid])FVNWLLAQRPSSGAPPPS-NH2 [Compound No. 35]",
    "Human GIPR cAMP EC50, HEK293T [pM]": 0.7
  },
  {
    "binder": "YXEGTFISDYSIXXDRXAQXNFVNWLLAQSPSSGAPPPS (N-methyl Tyr 1; Aib at 2,13,17,20; Lys(G5-C18 diacid) at 14; C-terminal OH) [Compound No. 96]",
    "Human GIPR cAMP EC50, HEK293T [pM]": 0.3
  },
  {
    "binder": "YXEGTFISDYSIAXDRXAQXNFVNWLLAQSPSSGAPPPS (N-methyl Tyr 1; Aib at 2,17,20; Lys(G5-C18 diacid) at 14; C-terminal OH) [Compound No. 45]",
    "Human GIPR cAMP EC50, HEK293T [pM]": 0.6
  },
  {
    "binder": "[NMeY][Aib]EGTFISDYSI[Aib]LDR[Aib]AQ[Aib]K([AEEA-AEEA-γGlu-γGlu-C17 diacid])FVNWLLAQSPSSGAPPPS-NH2 [Compound No. 94]",
    "Human GIPR cAMP EC50, HEK293T [pM]": 0.6
  },
  {
    "binder": "[NMeY][Aib]EGTFISDYSI[Aib]LDR[Aib]AQ[Aib]K([2OEGgEgE-C18 diacid])FVNWLLAQSPSSGAPPPS-NH2 [Compound No. 90]",
    "Human GIPR cAMP EC50, HEK293T [pM]": 0.5
  },
  {
    "binder": "[NMeY][Aib]EGTFISDYSIALDR[Aib]AQ[Aib]K([AEEA-AEEA-γGlu-γGlu-C18 diacid])FVNWLLAQSPSSGAPPPS-NH2 [Compound No. 97]",
    "Human GIPR cAMP EC50, HEK293T [pM]": 0.6
  }
]
